Answer each item with its documented TC.
Species: Rattus norvegicus
assay.text: Open TG-GATES - Regimen: Single
Type: toxicity, organism-based, Sprague-Dawley
Set-up: regimen Single, gender Male, age 6 weeks
stated.conditions: in vivo, po, 100 mg/kg, 9 h, tissue Plasma, route gavage, dose level Low
Answers are plain numbers, in mg/dL.

Example entries and their recorded answers appear below.
1. COc1ccc2[nH]c([S+]([O-])Cc3ncc(C)c(OC)c3C)nc2c1 (centres undefined): 71.2
2. CCOC(=O)CCC(=O)O[C@H]1[C@H](O[C@@H]2[C@@H](C)[C@H](O[C@H]3C[C@@](C)(OC)[C@@H](O)[C@H](C)O3)[C@@H](C)C(=O)O[C@H](CC)[C@@](C)(O)[C@H](O)[C@@H](C)C(=O)[C@H](C)C[C@@]2(C)O)O[C@H](C)C[C@@H]1N(C)C [ERYTHROMYCIN ETHYLSUCCINATE]: 78.2
3. COC1=CC(=O)C[C@@H](C)[C@]12Oc1c(Cl)c(OC)cc(OC)c1C2=O: 72.6

Return reported TC; argument: NC(N)=Nc1nc(CSCCC(N)=NS(N)(=O)=O)cs1
80.6

###

Species on record: Rattus norvegicus
assay.text: Open TG-GATES - Regimen: Single
Format: toxicity, organism-based, Sprague-Dawley
Set-up: regimen Single, gender Male, age 6 weeks
stated.conditions: in vivo, po, 0 mg/kg, 6 h, tissue Plasma, route gavage, dose level Control
measurement.type: TBIL (mg/dL)
Give bare numbers, in mg/dL.

Below, 2 compounds whose answers are already recorded.
1. CN(C)CCCN1c2ccccc2CCc2ccc(Cl)cc21 [CLOMIPRAMINE]: 0.07
2. NNC(=O)c1ccncc1 [ISONIAZID]: 0.1

Record TBIL per entry; entries follow.
1. CCOc1ccc(NC(=O)CC(C)O)cc1 (stereo not drawn) [BUCETIN]
2. CN1C(=O)CN=C(c2ccccc2)c2cc(Cl)ccc21 [DIAZEPAM]
3. CN(C)CCN(Cc1cccs1)c1ccccn1
4. CCOC(=O)CCC(=O)O[C@H]1[C@H](O[C@@H]2[C@@H](C)[C@H](O[C@H]3C[C@@](C)(OC)[C@@H](O)[C@H](C)O3)[C@@H](C)C(=O)O[C@H](CC)[C@@](C)(O)[C@H](O)[C@@H](C)C(=O)[C@H](C)C[C@@]2(C)O)O[C@H](C)C[C@@H]1N(C)C [ERYTHROMYCIN ETHYLSUCCINATE]
5. COC1=CC(=O)C[C@@H](C)[C@]12Oc1c(Cl)c(OC)cc(OC)c1C2=O [GRISEOFULVIN]
6. O=C(CCCN1CCC(O)(c2ccc(Cl)cc2)CC1)c1ccc(F)cc1 [HALOPERIDOL]

[0.058, 0.3, 0.016, 0.02, 0.2, 0.3]

Fill in TBIL for each of the 8 compounds listed.
1. Cc1ccc(C)c(OCCCC(C)(C)C(=O)O)c1 [GEMFIBROZIL]
2. C[C@@H]1C[C@H]2[C@@H]3CCC4=CC(=O)C=C[C@]4(C)[C@@]3(F)[C@@H](O)C[C@]2(C)[C@@]1(O)C(=O)CO [DEXAMETHASONE]
3. COc1cc2c(c(OC)c1OC)-c1ccc(OC)c(=O)cc1[C@@H](NC(C)=O)CC2 [COLCHICINE]
4. CN(C)CCCN1c2ccccc2CCc2ccccc21 [IMIPRAMINE]
5. CC1=C(/C=C/C(C)=C/C=C/C(C)=C/CO)C(C)(C)CCC1 [RETINOL]
6. NC(N)=Nc1nc(CSCCC(N)=NS(N)(=O)=O)cs1 [FAMOTIDINE]
7. COc1ccc2[nH]c([S+]([O-])Cc3ncc(C)c(OC)c3C)nc2c1 (stereo not drawn) [OMEPRAZOLE]
8. CCCNC(=O)NS(=O)(=O)c1ccc(Cl)cc1 [CHLORPROPAMIDE]

1. 0.046
2. 0.06
3. 0.4
4. 0.07
5. 0.022
6. 0.1
7. 0.1
8. 0.046

// input: 2 compounds below; output: TBIL for each
1. CC/C(=C(\c1ccccc1)c1ccc(OCCN(C)C)cc1)c1ccccc1 [TAMOXIFEN]
2. CC(C)OC(=O)C(C)(C)Oc1ccc(C(=O)c2ccc(Cl)cc2)cc1 [FENOFIBRATE]

1: 0.0425; 2: 0.056
